# T/C per entry
Tested on: HT29 xenograft, nude mice, s.c., tumor weight T/C%
Assay: NCI In Vivo Anticancer Drug Screen. Data for tumor model HT29;CX-1 Human Adenocarcinoma (MER+) (subcutaneous) in NU/NU Swiss (nude) mice
Details: endpoint: optimum tumor weight change; dose: 200.0 mg/kg/injection; schedule: Q04DX003 (ip); vehicle: saline with Tween-80; higher = larger tumour
Experimental: The antitumor activity of compounds was measured in mice bearing transplantable tumors. Survival or tumor size were measured and the results are expressed as the measurement made in the treated group (T) divided by the measurement made in the vehicle treated control group (C). The tumor model used in this assay is HT29;CX-1 Human Adenocarcinoma (MER+) (subcutaneous) in NU/NU Swiss (nude) mice

Study these solved cases before continuing.
MOLECULE | T/C
CC(=O)Oc1ccc[nH]c1=O | 96 % of control
CC(=O)OCC1OC(n2cc(CBr)nn2)C(OC(C)=O)C(OC(C)=O)C1OC(C)=O (centres undefined) | 69 % of control
CCN(CC)CCCC(C)Nc1c2ccc(Cl)cc2nc2ccc(OC)cc12 (centres undefined) | 91 % of control

Fill in the recorded T/C for this molecule, with HT29 xenograft, nude mice, s.c., tumor weight T/C% as test system: O=C1N(Cl)C(=O)C(c2ccc(Cl)cc2)(c2ccc(Cl)cc2)N1Cl
108 % of control
